test system: SN12C renal; experiment: NCI-60 one-dose screen, 48 h; settings: 10 µM unless noted
About 83,000 compounds went through this panel and 20% of them were active in at least one assay; those are over-represented in the sample as a whole. Active and inactive are the calls of the source. How the source made its calls: active means growth percent below 10; inactive means the rest.
Your response should consist of one outcome taken from active, inactive

Sample answers from the record:
compound | label
COc1ccc(-c2nn3c(-c4ccccc4F)nnc3s2)cc1 | inactive
CC(C)(C)Nc1nc2c(OCCc3ccccc3)cccn2c1-c1ccc(O)cc1 | inactive

Q: Hi, do you know how N=C1CC(=O)NN1C(=O)CSc1nc2sc3c(c2c(=O)n1-c1ccc(Cl)cc1)CCCC3 came out in this test?
A: inactive

Q: What was the test verdict on O=C1NC(=C(Cl)Cl)/C(=N/S(=O)(=O)N2CCCCC2CC2(C(F)(F)F)N=N2)N1 (stereo not given) ?
A: inactive

Q: Tell me the recorded outcome of this test for CC(C)(C)OC(=O)N1C(=O)c2c(c3c4ccccc4[nH]c3c3ccc4ccccc4c23)C1=O .
A: inactive

Q: How did this test come out for CCOC(=O)c1c(Nc2ccccc2)nn2c(N)c(C#N)c(-c3ccccc3)nc12 ?
A: inactive

Q: Recorded test outcome, item Cc1sc2c(c1C)c(=O)nc1c(-c3nc(-c4ccc(F)cc4)no3)n[nH]n12
A: inactive

Q: // outcome(item) with item = c1ccc2c(NCCCn3ccnc3)c3oc4ccccc4c3nc2c1
A: active

Q: // outcome(item) with item = OC1CCN(CCCOc2c3ccccc3nc3c2oc2ccc(Cl)cc23)CC1
A: inactive

Q: Hi team, can someone confirm the assay call for O=C(CN1CCOCC1)NNc1ncnc2ccccc12 ?
A: inactive

Q: Hello, I am checking results. What call was entered for COc1ccc(C(=O)/C=C/c2ccc(OCc3ccc(C)cc3)c(OC)c2)cc1OC ?
A: inactive

Q: How was COC(=O)C1CN(S(=O)(=O)/N=C2\NC(=O)NC2=C(Cl)Cl)C1 classified in this test?
A: inactive

* * *

tested on: 786-0 renal; assay: NCI-60 one-dose screen, 48 h (100 = growth as untreated, 0 = no growth, -100 = all killed); settings: 10 µM unless noted
About 83,000 compounds went through this panel and 20% of them were active in at least one assay; those are over-represented in the sample as a whole. Activity calls are given as the source filed them. How the source made its calls: active means growth percent below 10; inactive means the rest.
Listing of entries alongside the reported growth.

Please review the following examples before continuing.
molecule | assay system | growth
O=C(c1ccc(Cl)cc1)C1[C@H](c2ccc(Cl)cc2)[C@@H](c2ccccc2)NC12C(=O)Nc1ccc(Br)cc12 (some centres not stated) | 786-0 renal | 24.6% (inactive)
O=[N+]([O-])c1ccc(O)c2ncccc12 | 786-0 renal | 42.4% (inactive)
CCCSc1nc(Nc2ccc(/C(C)=N\NC(N)=S)cc2)c(C#N)c(-c2ccc(OC)cc2)n1 | 786-0 renal | 5.18% (active)
O=C(CSc1nc2sc3c(c2c(=O)n1-c1ccc(Cl)cc1)CCCC3)NNC(=O)Nc1cccc(C(F)(F)F)c1 | 786-0 renal | 30.3% (inactive)
Cn1cc(-c2cc(N)n3nc(-c4cn(C)c5ccc(Br)cc45)cc3n2)c2cc(Br)ccc21 | 786-0 renal | 94% (inactive)
C#Cc1nc(C2=C(C)/C(=N/OCc3ccccc3)CC2)cs1 | 786-0 renal | -95.7% (active)

Observed growth on 786-0 renal, entry c1ccc(CNc2ncnc3ccc(-c4cnc5[nH]ncc5c4)cc23)cc1 , equals 61.8% (inactive)

Item Cc1cc(C(=O)Nc2sc3c(c2C(N)=O)CCC(=O)C3)ccc1OCCN1CCCCC1 was tested on 786-0 renal; the reported growth is 111% (inactive)

Measured growth for this entry COc1cc(/C=C/C(=O)c2ccccc2)ccc1Oc1nc(NCCO)nc(N2CCOCC2)n1 on 786-0 renal: 105% (inactive)

Log: 786-0 renal, molecule Cc1ccc(C(=O)Nc2cccc(C(F)(F)F)c2)cc1Nc1nc(-c2cnccn2)nc2c1cnn2C , growth = 74% (inactive)

With 786-0 renal as the test system, C/C(=N\NC(N)=O)c1c(O)sc(=O)[nH]c1=O showed growth of 104% (inactive)

The value of growth recorded for O=C(CCN1C(=O)/C(=C/c2ccccc2)SC1=S)N1CCOCC1 when tested on 786-0 renal reads 82.6% (inactive)

Observed growth, 786-0 renal, Cc1[nH]nc2ncc(C#Cc3cncc(C(=O)Nc4ccc(CN5CCN(C)CC5)c(C(F)(F)F)c4)c3)cc12 : 43.1% (inactive)

The molecule CN(C)CCCOc1c2ccc(Cl)cc2nc2c1oc1ccccc12 , when measured on 786-0 renal, yielded growth of 6.22% (active)

O=C(N/N=C/c1ccc(Br)s1)c1[nH]c2ccc(Br)cc2c1-c1ccccc1 tested on 786-0 renal gave growth: 11.5% (inactive)

growth on 786-0 renal for CC(C)(C)Nc1nc2c(OCCc3ccccc3)cccn2c1-c1cccc(F)c1 is 5.13% (active)

Reported 786-0 renal growth for item Nc1nc(N)c2c(n1)NC(c1ccc(F)cc1)CC(c1ccc(Nc3nc(NCCO)nc(Nc4ccc(Cl)cc4)n3)cc1)=N2 (configuration not stated) was -71.1% (active)

# O=C1Nc2cc(Cl)ccc2/C1=C\c1ccc(OCc2ccc([N+](=O)[O-])cc2)cc1 with 786-0 renal: growth is 51% (inactive)

With 786-0 renal as the test system, CCOC(=O)c1c(Nc2ccccc2)nn2c(N)c(C#N)c(-c3ccc(Cl)cc3)nc12 showed growth of 38.7% (inactive)
